# Test Target: CaAbp1-D1
# Method Summary: SPOT peptide array binding signal intensity (averaged, normalized) (arbitrary units (background-subtracted, floor 0; scale differs between SH3 domains)); higher = stronger binding of the SH3 domain to the peptide
Here the recorded SPOT peptide array binding signal intensity is given for each entry.
Measure: SPOT peptide array binding signal intensity

>>> test_result("GKKVRPLLVLLLSRA")
208
>>> test_result("TSIEIPKRSPLRFTS")
272
>>> test_result("NFFRKKLGIPRKLKR")
1000
>>> test_result("VRVKKRPLIRPLNSS")
1520
